Reported property: IC50

Prompt: Recall the recorded IC50 for COc1cc(Nc2ncnc(Nc3ccc(S(=O)(=O)NC(C)=O)cc3)n2)cc(OC)c1OC with EGFR (UniProt P00533) and state it.
Sequence (P00533 whole entry, looked up): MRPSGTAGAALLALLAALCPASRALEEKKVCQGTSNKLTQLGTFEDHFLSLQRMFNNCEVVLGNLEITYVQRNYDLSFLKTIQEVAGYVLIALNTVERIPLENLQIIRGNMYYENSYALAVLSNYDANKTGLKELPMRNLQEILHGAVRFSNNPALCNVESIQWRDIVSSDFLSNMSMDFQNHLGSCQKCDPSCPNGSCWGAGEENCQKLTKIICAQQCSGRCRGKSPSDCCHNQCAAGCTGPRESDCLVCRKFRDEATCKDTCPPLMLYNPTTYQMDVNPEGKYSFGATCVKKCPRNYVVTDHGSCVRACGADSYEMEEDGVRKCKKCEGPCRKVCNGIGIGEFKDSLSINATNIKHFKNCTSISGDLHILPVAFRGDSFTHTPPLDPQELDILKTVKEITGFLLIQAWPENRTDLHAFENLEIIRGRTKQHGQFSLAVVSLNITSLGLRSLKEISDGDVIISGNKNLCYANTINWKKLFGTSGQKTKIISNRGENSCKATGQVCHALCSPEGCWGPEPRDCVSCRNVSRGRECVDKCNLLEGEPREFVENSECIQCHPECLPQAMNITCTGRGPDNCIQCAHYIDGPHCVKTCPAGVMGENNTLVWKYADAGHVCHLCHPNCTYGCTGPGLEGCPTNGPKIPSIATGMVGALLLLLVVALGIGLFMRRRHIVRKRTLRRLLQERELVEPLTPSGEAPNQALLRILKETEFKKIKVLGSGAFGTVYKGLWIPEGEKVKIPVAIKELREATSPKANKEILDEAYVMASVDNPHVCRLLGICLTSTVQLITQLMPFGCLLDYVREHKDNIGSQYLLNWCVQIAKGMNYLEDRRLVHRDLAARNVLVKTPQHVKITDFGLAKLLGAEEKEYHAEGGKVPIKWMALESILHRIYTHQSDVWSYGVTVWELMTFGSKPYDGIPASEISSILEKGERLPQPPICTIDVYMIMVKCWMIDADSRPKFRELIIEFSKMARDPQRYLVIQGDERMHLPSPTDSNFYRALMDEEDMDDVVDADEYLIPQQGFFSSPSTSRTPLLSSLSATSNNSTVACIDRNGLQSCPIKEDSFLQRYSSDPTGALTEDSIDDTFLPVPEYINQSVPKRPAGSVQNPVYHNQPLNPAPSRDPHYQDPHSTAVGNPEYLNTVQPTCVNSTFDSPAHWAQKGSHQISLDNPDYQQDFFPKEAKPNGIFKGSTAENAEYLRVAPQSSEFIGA
Completion: > 4.5 µg/mL

Prompt: Recall the recorded IC50 for CN(c1cccc(Cl)c1)c1ncnc(Nc2ccc(F)c(Cl)c2)n1 with EGFR (UniProt P00533) and state it.
Completion: < 0.4 µg/mL

Prompt: Recall the recorded IC50 for CN(c1cccc(Cl)c1)c1ncnc(Nc2cccc(Cc3nnn[nH]3)c2)n1 with EGFR (UniProt P00533) and state it.
Completion: < 0.4 µg/mL

Prompt: Recall the recorded IC50 for Oc1ccc(Nc2ncnc(-c3ccccc3)n2)cc1 with EGFR (UniProt P00533) and state it.
Completion: > 4.5 µg/mL

Prompt: Recall the recorded IC50 for COc1cccc(NC(=O)Nc2ncnc(Nc3cc(OC)c(OC)c(OC)c3)n2)c1 with EGFR (UniProt P00533) and state it.
Completion: > 4.5 µg/mL

Prompt: Recall the recorded IC50 for COc1ccc(-c2cn[nH]c2Nc2ncnc(Nc3cc(OC)c(OC)c(OC)c3)n2)cc1OC with EGFR (UniProt P00533) and state it.
Completion: 3.5 to 4.5 µg/mL

Prompt: Recall the recorded IC50 for COc1cc(CNc2ncnc(N(C)c3cccc(Cl)c3)n2)cc(OC)c1OC with EGFR (UniProt P00533) and state it.
Completion: 2.4 to 3.5 µg/mL

Prompt: Recall the recorded IC50 for COc1ccc([C@H](C)Nc2nc3ccccc3n2-c2ncnc(Nc3cc(OC)c(OC)c(OC)c3)n2)cc1 with EGFR (UniProt P00533) and state it.
Completion: > 4.5 µg/mL

Prompt: Recall the recorded IC50 for CN(c1cccc(Cl)c1)c1ncnc(Nc2cccc(OC(F)(F)F)c2)n1 with EGFR (UniProt P00533) and state it.
Completion: < 0.4 µg/mL

Prompt: Recall the recorded IC50 for COc1cc(Nc2ncnc(-n3ccc4cc(F)ccc43)n2)cc(OC)c1OC with EGFR (UniProt P00533) and state it.
Completion: > 4.5 µg/mL

Prompt: Recall the recorded IC50 for O=c1[nH]c2ccccc2n1-c1ncnc(Nc2cccc3ccccc23)n1 with EGFR (UniProt P00533) and state it.
Completion: > 4.5 µg/mL

Prompt: Recall the recorded IC50 for COc1cc(Nc2ncnc(-c3cccnc3NCc3ccccc3F)n2)cc(OC)c1OC with EGFR (UniProt P00533) and state it.
Completion: > 4.5 µg/mL

Prompt: Recall the recorded IC50 for COc1ccc(Nc2ncnc(N(C)c3ccc(C(=O)O)cc3)n2)cc1OC with EGFR (UniProt P00533) and state it.
Completion: > 4.5 µg/mL

Prompt: Recall the recorded IC50 for COc1cc(Nc2ncnc(-c3ccc(NCCCO)nc3)n2)cc(OC)c1OC with EGFR (UniProt P00533) and state it.
Completion: > 4.5 µg/mL

Prompt: Recall the recorded IC50 for CN(C)c1ccc(Nc2ncnc(-n3c(N)nc4ccccc43)n2)cc1 with EGFR (UniProt P00533) and state it.
Completion: 2.4 to 3.5 µg/mL

Prompt: Recall the recorded IC50 for COc1cc(Nc2ncnc(-n3c(NCc4cccc(Br)c4)nc4ccccc43)n2)cc(OC)c1OC with EGFR (UniProt P00533) and state it.
Completion: 3.5 to 4.5 µg/mL

Prompt: Recall the recorded IC50 for COC(=O)c1ccc(-c2cc(Nc3ncnc(Nc4cccc(CC(N)=O)c4)n3)[nH]n2)cc1 with EGFR (UniProt P00533) and state it.
Completion: 3.5 to 4.5 µg/mL

Prompt: Recall the recorded IC50 for COc1cc(Nc2ncnc(-c3cccnc3N)n2)cc(OC)c1OC with EGFR (UniProt P00533) and state it.
Completion: > 4.5 µg/mL

Prompt: Recall the recorded IC50 for COc1cc(Nc2ncnc(Nc3nc(-c4ccccc4)cs3)n2)cc(OC)c1OC with EGFR (UniProt P00533) and state it.
Completion: > 4.5 µg/mL

Prompt: Recall the recorded IC50 for COc1cc(Nc2ncnc(-n3c(NCc4ccncc4)nc4ccccc43)n2)cc(OC)c1OC with EGFR (UniProt P00533) and state it.
Completion: > 4.5 µg/mL

Prompt: Recall the recorded IC50 for O=C(O)c1cccc(Nc2ncnc(-n3c(NCc4ccccc4)nc4ccccc43)n2)c1 with EGFR (UniProt P00533) and state it.
Completion: < 0.4 µg/mL
